System: Haemophilus parainfluenzae
Experiment: growth AUC normalised to DMSO control (fraction of control); higher = less growth inhibition, active = hit call of the paper;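 active = AUC significantly below DMSO controls by Student t-fit with adjusted P under 0.01; inactive = not significantly reduced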
Details: 20 µM
Structures can show the parent of a compound that is named as a salt.
Result category, one only: label 1 (active), label 0 (inactive)

Field: example entries. Status: answers known.
compound | label
CC(=O)c1ccc2c(c1)N(CCCN(C)C)c1ccccc1S2 [Acetopromazine maleate salt] | label 0
N=c1nc(N2CCCCC2)cc(N)n1O [Minoxidil] | label 0
CC1CCc2c(N3CCC(O)CC3)c(F)cc3c(=O)c(C(=O)O)cn1c23 (centres undefined) [Nadifloxacin] | label 1

Dear all, I need the recorded test outcome for O=C1CC[C@@]2(O)[C@H]3Cc4ccc(O)c5c4[C@@]2(CCN3CC2CC2)[C@H]1O5 [Naltrexone hydrochloride dihydrate] , thank you. label 0

Query: recorded result category for CC1=C(/C=C/C(C)=C/C=C/C(C)=C/C(=O)O)C(C)(C)CCC1 [Retinoic acid] in this test label 0

// param item: CC[N+](CC)(CC)CCC(O)(c1ccccc1)C1CCCCC1 (centres undefined) [Tridihexethyl chloride] ; yields the recorded call label 0

Lab log entry: COc1cc(N)c(Cl)cc1C(=O)NC1CCN(Cc2ccccc2)CC1 [Clebopride maleate] — outcome as called in the assay? label 0

Recorded test call requested for CC(C)NC[C@H](O)COc1ccc(CC(N)=O)cc1 [(S,-) Atenolol] label 0

What is the recorded call for this compound in the test? CC(C)NC[C@@H](O)COc1cccc2ccccc12 [(R) Propranolol hydrochloride] label 0

Hi, sorry to bother you, what did the test record for C[N+]1(C)CCOC(O)(c2ccc(-c3ccc(C4(O)C[N+](C)(C)CCO4)cc3)cc2)C1 (centres undefined) [Hemicholinium bromide] ? label 0

In this assay, the call recorded for CC(=O)Nc1c(I)c(C(=O)N[C@H]2C(O)O[C@H](CO)[C@@H](O)[C@@H]2O)c(I)c(N(C)C(C)=O)c1I (some centres undefined) [Metrizamide] was what? label 0

Outcome? c1ccc2c(CC3=NCCN3)cccc2c1 [Naphazoline hydrochloride] label 0

Please let me know the test result on file for O=C1CN(/N=C/c2ccc(-c3ccc([N+](=O)[O-])cc3)o2)C(=O)N1 [Dantrolene sodium salt] . label 0

How did this test come out for CN[C@H](CC(C)C)C(=O)N[C@H]1C(=O)N[C@@H](CC(N)=O)C(=O)N[C@H]2C(=O)N[C@H]3C(=O)N[C@H](C(=O)N[C@H](C(=O)O)c4cc(O)cc(O)c4-c4cc3ccc4O)[C@H](O)c3ccc(c(Cl)c3)Oc3cc2cc(c3O[C@@H]2O[C@H](CO)[C@@H](O)[C@H](O)[C@H]2O[C@H]2C[C@](C)(N)[C@H](O)[C@H](C)O2)Oc2ccc(cc2Cl)[C@H]1O [Vancomycin hydrochloride] ? label 0

Where these numbers come from: the supplement of paper PMC12350171
